Biological target: AR protein (Homo sapiens)
Construct: degradation activity of the compounds disclosed in the present disclosure on AR protein in VCaP cells; host or cells: VCaP
Experiment: Degradation of AR protein in VCaP cells (Western blot)
Assay type: cell-based
Conditions: compound at 10 nM, 8 hours, read-out: Degradation rate of the AR protein in VCaP cells, 10 nM (%)
# inhibition at 0.01 µM listing for each entry below

// returns reported inhibition at 0.01 µM for input N#Cc1ccc(O[C@H]2CC[C@H](NC(=O)c3ccc(N4CC(N5CCC6(CCc7cc8c(cc7O6)C(=O)N(C6CCC(=O)NC6=O)C8=O)CC5)C4)nn3)CC2)cc1Cl (stereo partly drawn) [Compound 25]
13%

Cool, now N#Cc1ccc(O[C@H]2CC[C@H](NC(=O)c3ccc(N4CCC5(CCC(N6CCC7(CCc8cc9c(cc8O7)C(=O)N(C7CCC(=O)NC7=O)C9=O)CC6)CC5)C4)nn3)CC2)cc1Cl (stereo partly drawn) [Compound 34]
39%

We next turn to a different compound, shown below.
I am curious: what inhibition at 0.01 µM value has been reported for N#Cc1ccc(O[C@H]2CC[C@H](NC(=O)c3ccc(N4CC5(CCc6cc7c(cc6O5)C(=O)N(C5CCC(=O)NC5=O)C7=O)C4)nn3)CC2)cc1Cl (stereo partly drawn) [Compound 6] ?
13%

----------
Biological target: AR protein (Homo sapiens, UniProt P10275)
Construct: degradation activity of the compounds disclosed in the present disclosure on AR protein in VCaP cells; host or cells: VCaP
Sequence (P10275 1-920): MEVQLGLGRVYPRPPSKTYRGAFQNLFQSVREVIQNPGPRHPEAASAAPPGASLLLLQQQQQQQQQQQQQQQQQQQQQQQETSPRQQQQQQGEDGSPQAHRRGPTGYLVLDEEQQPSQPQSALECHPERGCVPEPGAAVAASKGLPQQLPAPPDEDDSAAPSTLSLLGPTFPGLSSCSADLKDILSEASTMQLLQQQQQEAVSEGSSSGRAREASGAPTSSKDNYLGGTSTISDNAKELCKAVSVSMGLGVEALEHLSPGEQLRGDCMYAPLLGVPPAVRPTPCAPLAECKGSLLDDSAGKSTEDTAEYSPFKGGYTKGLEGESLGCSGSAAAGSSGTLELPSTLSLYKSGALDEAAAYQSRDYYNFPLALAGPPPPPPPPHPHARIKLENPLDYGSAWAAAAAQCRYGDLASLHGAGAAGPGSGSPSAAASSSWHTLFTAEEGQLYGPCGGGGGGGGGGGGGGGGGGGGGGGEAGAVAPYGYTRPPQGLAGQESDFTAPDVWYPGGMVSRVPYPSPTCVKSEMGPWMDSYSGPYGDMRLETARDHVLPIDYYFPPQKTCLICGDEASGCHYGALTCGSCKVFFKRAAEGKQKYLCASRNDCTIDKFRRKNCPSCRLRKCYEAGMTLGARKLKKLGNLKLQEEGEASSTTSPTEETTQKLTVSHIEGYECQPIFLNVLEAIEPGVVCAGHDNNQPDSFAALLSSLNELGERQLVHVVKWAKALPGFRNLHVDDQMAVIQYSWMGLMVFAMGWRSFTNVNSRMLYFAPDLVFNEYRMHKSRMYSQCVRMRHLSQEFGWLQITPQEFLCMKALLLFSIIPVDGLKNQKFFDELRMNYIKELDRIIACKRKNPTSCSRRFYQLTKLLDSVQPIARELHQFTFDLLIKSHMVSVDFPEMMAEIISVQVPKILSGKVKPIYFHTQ
Test: Degradation of AR protein in VCaP cells (Western blot)
Assay type: cell-based
Settings: compound at 10 nM, 8 hours, read-out: Degradation rate of the AR protein in VCaP cells, 10 nM (%)
Test readout: inhibition at 0.01 µM (%)
I only need the number, in %, no unit after it.

What value of inhibition at 0.01 µM has been recorded for this entry: N#Cc1ccc(O[C@H]2CC[C@H](NC(=O)c3ccc(N4CCC(CN5CCC6(CC5)COc5cc7c(cc5C6)C(=O)N(C5CCC(=O)NC5=O)C7=O)CC4)nn3)CC2)cc1Cl (stereo partly drawn)
75

Item: N#Cc1ccc(O[C@H]2CC[C@H](NC(=O)c3ccc(N4CCN(C(=O)CN5CCC6(CC5)COc5c6ccc6c5CN(C5CCC(=O)NC5=O)C6=O)CC4)nn3)CC2)cc1Cl (stereo partly drawn)
74

---
Need inhibition at 0.01 µM, item COc1cc(OC2CCC(NC(=O)c3cnc(N4CCC(C)(CN5CCC6(CC5)COc5c6ccc6c5CN(C5CCC(=O)NC5=O)C6=O)CC4)nc3)CC2)ccc1C#N (stereo not drawn)
53

----------
Target: AR protein (Homo sapiens, UniProt P10275, T878A)
Construct: degradation activity of the compounds disclosed in the present disclosure on AR protein in LNCaP cells; host or cells: LNCaP FGC
Experiment: Degradation of AR protein in LNCaP cells (Western blot)
Format: cell-based
Details: LNCaP, 8 h, read-out: Degradation rates of the AR protein in LNCaP cells, 10 nM (%)
Description: The degradation activity of the compounds disclosed in the present disclosure on AR protein in LNCaP cells (cell source: ATCC) Corresponding solvent controls were also set and cultured for 8 hours. After 8 hours of cultivation, the culture medium was removed and the cells were washed with PBS. […] The protein concentration in the extract was detected by BCA method. […] Bands were analyzed in grayscale using Image Studio software. For each sample, GAPDH protein bands were detected as internal reference. […]
Response key: True means inhibition at 0.01 µM >= 40%; False means inhibition at 0.01 µM < 40%.

Use the examples below as a reference point.
Check if inhibition at 0.01 µM >= 40% (inclusive). Item: N#Cc1ccc(O[C@H]2CC[C@H](NC(=O)c3ccc(N4CC(N5CCC6(CC5)Cc5cc7c(cc5O6)C(=O)N(C5CCC(=O)NC5=O)C7=O)C4)nn3)CC2)cc1Cl (some centres unmarked)
False

Would you kindly repeat that for N#Cc1ccc(O[C@H]2CC[C@H](NC(=O)c3ccc(N4CCC(N5CCC6(CC5)COc5c6ccc6c5CN(C5CCC(=O)NC5=O)C6=O)CC4)nn3)CC2)cc1Cl (some centres unmarked) ?
True

Try this molecule next: N#Cc1ccc(O[C@H]2CC[C@H](NC(=O)c3ccc(N4CC(N5CCC6(CC5)Oc5cc7c(cc5CC6(F)F)C(=O)N(C5CCC(=O)NC5=O)C7=O)C4)nn3)CC2)cc1Cl (some centres unmarked)
False

Moving on to another molecule below.
Is the recorded value of inhibition at 0.01 µM equal to or greater than 40% for this molecule? N#Cc1ccc(O[C@H]2CC[C@H](NC(=O)c3ccc(N4CCC(N5CCC6(CCc7cc8c(cc7O6)C(=O)N(C6CCC(=O)NC6=O)C8=O)CC5)CC4)nn3)CC2)cc1Cl (some centres unmarked)
True

----------
// reported inhibition at 0.01 µM for each item listed
Molecular target: AR protein (Homo sapiens, UniProt P10275)
Construct: degradation activity of the compounds disclosed in the present disclosure on AR protein in VCaP cells; host or cells: VCaP
Sequence (P10275 1-920): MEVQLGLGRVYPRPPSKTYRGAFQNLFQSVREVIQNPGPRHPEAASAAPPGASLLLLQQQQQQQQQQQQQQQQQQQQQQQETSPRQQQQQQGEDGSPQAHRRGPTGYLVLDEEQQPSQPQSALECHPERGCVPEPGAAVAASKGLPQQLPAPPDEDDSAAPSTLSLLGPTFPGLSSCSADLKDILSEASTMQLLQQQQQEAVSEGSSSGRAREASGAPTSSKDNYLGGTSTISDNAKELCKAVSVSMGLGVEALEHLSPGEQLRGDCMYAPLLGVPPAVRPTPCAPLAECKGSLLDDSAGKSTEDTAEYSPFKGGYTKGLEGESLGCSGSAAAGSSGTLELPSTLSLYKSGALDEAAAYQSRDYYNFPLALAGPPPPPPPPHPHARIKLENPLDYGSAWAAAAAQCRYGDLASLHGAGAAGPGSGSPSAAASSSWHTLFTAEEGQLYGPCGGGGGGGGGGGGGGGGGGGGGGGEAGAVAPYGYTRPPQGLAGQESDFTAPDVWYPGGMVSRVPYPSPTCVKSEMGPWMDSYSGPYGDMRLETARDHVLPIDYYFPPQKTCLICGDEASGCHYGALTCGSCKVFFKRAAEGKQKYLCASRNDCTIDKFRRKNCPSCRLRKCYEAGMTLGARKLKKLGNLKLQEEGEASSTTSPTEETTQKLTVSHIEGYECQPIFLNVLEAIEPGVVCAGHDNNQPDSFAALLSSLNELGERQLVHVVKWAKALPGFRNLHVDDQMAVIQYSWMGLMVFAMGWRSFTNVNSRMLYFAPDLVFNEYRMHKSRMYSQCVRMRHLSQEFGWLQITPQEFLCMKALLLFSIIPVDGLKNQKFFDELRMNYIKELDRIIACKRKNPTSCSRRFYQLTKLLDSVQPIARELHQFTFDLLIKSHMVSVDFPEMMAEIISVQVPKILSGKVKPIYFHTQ
Experiment: Degradation of AR protein in VCaP cells (Western blot)
Assay type: cell-based
Settings: compound at 10 nM, 8 hours, read-out: Degradation rate of the AR protein in VCaP cells, 10 nM (%)
Units required after the number.

Examples with answers:
Entry N#Cc1ccc(O[C@H]2CC[C@H](NC(=O)c3ccc(N4CCC5(CC(N6CCC7(CCc8cc9c(cc8O7)C(=O)N(C7CCC(=O)NC7=O)C9=O)CC6)C5)C4)nn3)CC2)cc1Cl (some centres unmarked) [Compound 35] has what inhibition at 0.01 µM?
47%

One more molecule: N#Cc1ccc(O[C@H]2CC[C@H](NC(=O)c3ccc(N4CCC(F)(CN5CC6(CCc7ccc8c(c7O6)C(=O)N(C6CCC(=O)NC6=O)C8=O)C5)CC4)nn3)CC2)cc1Cl (some centres unmarked) [Compound 164]
4%

Would you kindly repeat that for COC1(CN2CC3(CCc4cc5c(cc4O3)C(=O)N(C3CCC(=O)NC3=O)C5)C2)CCN(c2ccc(C(=O)N[C@H]3CC[C@H](Oc4ccc(C#N)c(Cl)c4)CC3)nn2)CC1 (some centres unmarked) [Compound 9] ?
87%

Now the same for N#Cc1ccc(O[C@H]2CC[C@H](NC(=O)c3ccc(N4CCC(N5CC(N6CCC7(CC6)COc6c7ccc7c6CN(C6CCC(=O)NC6=O)C7=O)C5)CC4)nn3)CC2)cc1Cl (some centres unmarked) [Compound 144]
82%

Others:
Given the molecule COc1cc(O[C@H]2C(C)(C)[C@H](NC(=O)c3ccc(N4CCC(CN5CCC6(CC5)COc5c6ccc6c5C(=O)N(C5CCC(=O)NC5=O)C6=O)CC4)cc3)C2(C)C)ccc1C#N (some centres unmarked) [Compound 234] , what is its reported inhibition at 0.01 µM?
35%
